Ratio IC50 values for the molecules below.
Test system: Ishikawa
TEST_DESCRIPTION: Selectivity ratio of IC50 for human A549 cells to IC50 for human Ishikawa cells
Format: functional
MEASUREMENT_KIND: Ratio IC50

>>> numeric_result("O=C(Oc1ccc(-c2ccc(F)cc2F)cc1C(=O)Nc1ccc([N+](=O)[O-])c(C(F)(F)F)c1)c1ccccc1")
348
>>> numeric_result("O=C(Nc1ccc([N+](=O)[O-])c(C(F)(F)F)c1)c1cc(-c2ccc(F)cc2F)ccc1O")
2.38
>>> numeric_result("CC(=O)Oc1ccc(-c2ccc(F)cc2F)cc1C(=O)Nc1cc(C)ccc1C")
9.94
>>> numeric_result("CCN1CCN(C(=O)c2cc(-c3ccc(F)cc3F)ccc2O)CC1")
30.6
>>> numeric_result("O=C(Oc1ccc(-c2ccc(F)cc2F)cc1C(=O)Nc1ccccc1)c1ccccc1")
7.61
>>> numeric_result("Cc1ccc(NC(=O)c2cc(-c3ccc(F)cc3F)ccc2OC(=O)c2ccccc2)cc1")
7.91
>>> numeric_result("O=C(Oc1ccc(-c2ccc(F)cc2F)cc1C(=O)NCc1ccccc1)c1ccccc1")
1.37
>>> numeric_result("O=C(Oc1ccc(-c2ccc(F)cc2F)cc1C(=O)Nc1ccc([N+](=O)[O-])c(C(F)(F)F)c1)c1ccc([N+](=O)[O-])cc1")
52.34
>>> numeric_result("CC(=O)Oc1ccc(-c2ccc(F)cc2F)cc1C(=O)NC1CCCCC1")
21.9
>>> numeric_result("CC(=O)Oc1ccc(-c2ccc(F)cc2F)cc1C(=O)Nc1ccccc1Cl")
290
>>> numeric_result("CCCNC(=O)c1cc(-c2ccc(F)cc2F)ccc1OC(=O)c1ccccc1")
7
>>> numeric_result("CNC(=O)c1cc(-c2ccc(F)cc2F)ccc1OC(=O)c1ccccc1")
1.48
>>> numeric_result("Cc1ccccc1NC(=O)c1cc(-c2ccc(F)cc2F)ccc1OC(=O)c1ccccc1")
31.3
>>> numeric_result("CC(=O)Oc1ccc(-c2ccc(F)cc2F)cc1C(=O)Nc1ccccc1")
18.2
>>> numeric_result("O=C(Oc1ccc(-c2ccc(F)cc2F)cc1C(=O)Nc1ccccc1Cl)c1ccccc1")
13.8
>>> numeric_result("O=C(Oc1ccc(-c2ccc(F)cc2F)cc1C(=O)Nc1ccc(Cl)cc1)c1ccccc1")
248
>>> numeric_result("CNC(=O)c1cc(-c2ccc(F)cc2F)ccc1OC(C)=O")
1.83
>>> numeric_result("Cc1cccc(NC(=O)c2cc(-c3ccc(F)cc3F)ccc2OC(=O)c2ccccc2)c1")
5.04
>>> numeric_result("CC(=O)Oc1ccc(-c2ccc(F)cc2F)cc1C(=O)Nc1cccc(C)c1")
18.2
>>> numeric_result("CCNC(=O)c1cc(-c2ccc(F)cc2F)ccc1OC(C)=O")
1.85

The measured values listed here are drawn from ChEMBL document CHEMBL1152366.
